- Assay Method Text: Serum biotin levels after 20 mg biotin ingestion, free biotin ELISA
- Run Conditions: both, human, in vivo, 20 mg, Biotin Concentration 1-hr, 1 hr after 20 mg biotin ingestion, per volunteer

>  <Input Smiles>
O=C(O)CCCC[C@@H]1SC[C@@H]2NC(=O)N[C@@H]21

>  <concentration at 1 h [ng/mL]>
531

$$$$

* * *

- Assay Method Text: Serum biotin levels after 20 mg biotin ingestion, free biotin ELISA
- Run Conditions: both, human, in vivo, 20 mg, Biotin Concentration 6-hr, 6 hr after 20 mg biotin ingestion, per volunteer
Recorded Metric: concentration at 6 h (ng/mL)

>  <Compound>
O=C(O)CCCC[C@@H]1SC[C@@H]2NC(=O)N[C@@H]21 [Biotin]

>  <Value>
107

$$$$

* * *

- Assay Method Text: clinical
- Run Conditions: human, in vivo, 200 mg, serum biotin level, 200 mg dose (so in the source), 6 hours, LC-MS/MS

>  <Input Smiles>
O=C(O)CCCC[C@@H]1SC[C@@H]2NC(=O)N[C@@H]21

>  <concentration at 6 h>
95 to 347 ng/mL

$$$$
